- study.target: T1, BsoBI D246C (UniProt P70985 P70985:1-323, D246C)
- T1 sequence: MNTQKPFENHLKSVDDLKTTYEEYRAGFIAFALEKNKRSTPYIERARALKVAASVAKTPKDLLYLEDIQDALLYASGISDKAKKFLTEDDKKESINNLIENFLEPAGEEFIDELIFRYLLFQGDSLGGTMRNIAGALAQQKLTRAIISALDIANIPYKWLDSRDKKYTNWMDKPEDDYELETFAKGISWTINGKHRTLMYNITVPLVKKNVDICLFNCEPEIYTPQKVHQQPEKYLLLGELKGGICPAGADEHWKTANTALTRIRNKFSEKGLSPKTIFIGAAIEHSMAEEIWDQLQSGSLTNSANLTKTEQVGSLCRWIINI
- experiment.description: filter; 4 mM CaCl2; ±11
- experimental.setup: chain copies: 2 inferred; label: 33P 5' end
measured.parameter: pKd
Numbers only, as −log10 of the molar value.

Fill blank: measured pKd of the binder S1 (CTCGAG) (dsDNA) DNA 1: GAGTGTTATGGGTAGCTCGAGTGAAGTGGGAATATC DNA 2: GATATTCCCACTTCACTCGAGCTACCCATAACACTC is ____.
10.13
